B. signalgrass plant response rating values for the molecules below.
Tested on: surinam grass
Assay: Test B pre/postemergence surinam grass
Format: in vivo, Brachiaria decumbens
Conditions: Rate 500 g/ha, Postemergence; scale of 0 to 10 where 0 is no effect and 10 is complete control
Method: […] At the same time, these crop and weed species were also treated with postemergence applications of test chemicals formulated in the same manner. […] Treated plants and controls were maintained in a greenhouse for twelve to sixteen days, after which all species were compared to controls and visually evaluated. […]
# print the numeric value only

Solved cases (3 shown):
[
  {
    "structure_string": "Cc1cccc(C(C)C)c1-n1c(=O)on(C(=O)N(c2ccccc2)C(C)C)c1=O",
    "experimental_system": "surinam grass",
    "numeric_result": 0
  },
  {
    "structure_string": "Cc1ccc(N(C(=O)n2oc(=O)n(C(C)C)c2=O)C(C)C)cc1",
    "experimental_system": "surinam grass",
    "numeric_result": 7
  },
  {
    "structure_string": "CN(C(=O)n1oc(=O)n(Cc2ccccc2)c1=O)c1ccccc1",
    "experimental_system": "surinam grass",
    "numeric_result": 0
  }
]

# input GET /values?readout=B. signalgrass plant response rating&system=surinam grass&item= `CC(C)N(C(=O)n1oc(=O)n(C(C)(C)C)c1=O)c1ccccc1`
# output 6

Origin of measurements: patent US6737383B1
